Provenance of the data: paper PMC7822874

Experiment: in vitro
Conditions: human, hepg2-a16-cd81egfp cells, % viability
Metric Name: viability at 3 µM (%)
Supply the numeric figure in %, leaving out any unit text.

INSERT INTO results (molecule, assay_value) VALUES
  ('CCN1CCN(Cc2ccc(NC(=O)c3cc(NC(=O)c4cncc(-c5ccc(C#N)cc5)c4)cc(OC)c3)cc2C(F)(F)F)CC1', 99.9);

Requested field: viability at 3 µM. Item: O[C@H]1[C@H](NCC2CCCCC2)[C@H]2CO[C@H](O2)[C@@H]1N1CCC(Cc2ccccc2)CC1
99.2

Requested field: viability at 3 µM. Item: CC(C)Nc1ccc(Nc2ccnc3cc4ccccc4cc23)cc1
83.9

Requested field: viability at 3 µM. Item: CCN(CC)CCN1C(=O)c2ccccc2NC1c1ccc(Br)cc1 (stereo not shown)
87.8

====

# Average HepG2 3 µM response( %) per entry
Tested on: HepG2-A16-CD81EGFP cells
Details: HepG2, 3 µM dose, averaged response (percent)
Supply the numeric figure in %, leaving out any unit text.

Please provide the recorded Average HepG2 3 µM response( %) for CCCCCC(=O)O[C@]1(C(C)=O)CC[C@H]2[C@@H]3CCC4=CC(=O)CC[C@]4(C)[C@H]3CC[C@@]21C , tested on HepG2-A16-CD81EGFP cells.
104

Please provide the recorded Average HepG2 3 µM response( %) for Oc1cc2c(cc1CN1CCN(c3ccccc3)CC1)CCC2 , tested on HepG2-A16-CD81EGFP cells.
101

Please provide the recorded Average HepG2 3 µM response( %) for COc1cccc(OC)c1C(=O)NC(S)=Nc1ccc2c(c1)C(=O)N(C)C2=O , tested on HepG2-A16-CD81EGFP cells.
104

Please provide the recorded Average HepG2 3 µM response( %) for COc1ccc(Nc2cc(C)c3ccc(O)cc3n2)cc1 , tested on HepG2-A16-CD81EGFP cells.
96

Please provide the recorded Average HepG2 3 µM response( %) for Cc1nn(-c2nnc(NCc3ccccc3)nn2)c(C)c1Br , tested on HepG2-A16-CD81EGFP cells.
93

====

Assay: in vitro
Conditions: human, HepG2-A16-CD81EGFP cells, uninfected
Metric Name: viability at 48 h, 3 µM (%)
Supply the numeric figure in %, leaving out any unit text.

Examples with their reported viability at 48 h, 3 µM follow.
INSERT INTO measurements (molecule, unit_of_measure, assay_value) VALUES
  ('COc1ccc(C(CCN2CCN(c3ccccc3)CC2)c2c(O)cc(OC)cc2OC)cc1 (stereo not drawn)', '%', 95),
  ('CC(C)(C)OC(=O)N1CCC(CC2CC(c3ccccc3)=NO2)(C(=O)NCc2ccccc2)CC1 (stereo not drawn)', '%', 95),
  ('COc1ccc(NC(C)C(=O)Nc2cc(C(F)(F)F)ccc2N2CCOCC2)c(OC)c1 (stereo not drawn)', '%', 91);

Requested field: viability at 48 h, 3 µM. Item: CCCn1c(SCC(=O)Nc2cc(Cl)ccc2Cl)n[nH]c1=O
94

Requested field: viability at 48 h, 3 µM. Item: CCOC(=O)c1ccc(NC2=CC(c3ccc(O)c(OCC)c3)N(c3ccc(C(=O)OCC)cc3)C2=O)cc1 (stereo not drawn)
101

====

System: Plasmodium falciparum Dd2 asexual blood stage parasites
Experiment: microbe, parasite or virus in culture
Design: species or system Plasmodium falciparum Dd2 in human erythrocytes; single determination (one 11-point concentration-response curve)
Conditions: Plasmodium falciparum, DD2, Erythrocyte, 72 h; read-out: AC50
Quick rule for you: AC50 under 2 µM gets label 1, anything else gets label 0.

INSERT INTO measurements (molecule, class_label) VALUES
  ('Fc1ccc(OC2CN(CC3CCCCC3)C2)cc1F', 'label 0'),
  ('COc1cc([N+](=O)[O-])ccc1NC(=O)Nc1nc2c(s1)CCCC2', 'label 0'),
  ('CC(C)C(=O)N1Cc2ccccc2CC2(CCCN(CC3CCCCC3)C2)C1 (stereo not drawn)', 'label 1'),
  ('O=C(NC(S)=Nc1ccc(NC(=O)c2cccs2)cc1)c1ccco1', 'label 0'),
  ('CC1CCN(CC2CCCCCN2C(=O)Cc2ccccc2)CC1 (stereo not drawn)', 'label 0');

Is it true that AC50 reported for O=C1NCc2ccccc2CC12CCCCN2CC1CC=CCC1 (stereo not drawn) is less than 2 µM?
label 0

Is it true that AC50 reported for Cc1nn2c(c1-c1ccccc1-c1ccccc1)N(Cc1ccc(O)cc1)CCC2 is less than 2 µM?
label 1

Is it true that AC50 reported for COc1ccc(N2CCN(Cc3cc4c(cc3O)CCC4)CC2)cc1 is less than 2 µM?
label 0

Is it true that AC50 reported for O=C1c2cc(F)ccc2-n2c1nc1ccccc1c2=O is less than 2 µM?
label 1
